Experiment: physchem
Settings: pH 2.49, plasma or biological fluid, thermodynamic from solid
readout name: solubility (mg/mL)
Your answer is read as mg/mL, so omit the unit and give the number.

# lookup: solubility of CSCC[C@H](N)C(=O)O 75

###

Assay: physchem
Conditions: pH 9.36, plasma or biological fluid, thermodynamic from solid
readout name: solubility (mg/mL)
A number alone suffices; assume mg/mL.

Sample CSCC[C@H](N)C(=O)O — what was its solubility? 78

###

Experiment: physchem
Conditions: 22 °C, pH 5.54, plasma or biological fluid, thermodynamic from solid
readout name: solubility

Quick one: solubility for CSCC[C@H](N)C(=O)O [L-methionine] ? 38 mg/mL

###

Experiment: physchem
Details: pH 8.92, plasma or biological fluid, thermodynamic from solid
readout name: solubility (mg/mL)
Provide only the numeric value, understood in mg/mL.

Report solubility for CSCC[C@H](N)C(=O)O [L-methionine] please. 58
